Values were extracted from ChEMBL document CHEMBL5058577.

tested on: HEK-293T; assay: Multiplex assay against HEK293T; format: toxicity, cell-based; settings: human, 12 h, 10 µM, compound concentration 10 uM, replicate 1
readout.type: Population Normal (%)
Reply with just the number (in %).

molecule	readout.type	unit.abbreviation	value.observed
CN(C)CCCc1cc(C(=O)Nc2ccc(-c3ccncc3)cc2)ccc1O.Cl.Cl	Population Normal (%)	%	93
C[C@H](NC(=O)c1c(C(F)F)nn(C)c1Oc1cccc(C(F)(F)F)c1)c1ccc(C(=O)O)cc1 [PALUPIPRANT]	Population Normal (%)	%	92

Query (molecule): Cc1ccc(C(C)(O)c2nc3ccccc3s2)c(C)c1 (stereo unspecified) ; field requested: Population Normal (%)
91

Now this one: O=C(O)c1cc2ccccc2c(Cc2c(O)c(C(=O)O)cc3ccccc23)c1O [PAMOIC ACID]
91

Further, for Cc1ccc(-c2ccc(F)cc2COc2ccc(CCC(=O)O)cc2)cc1 ?
92

Let us now turn to Oc1c(CN2CCN(c3ccccn3)CC2)cc(Cl)c2cccnc12
88
